Test system: MRC5
Assay: Cytotoxicity against human MRC5 cells after 48 hrs by SRB assay
Type: functional, cell-based
Settings: MRC5, 48 h
pIC50: −log10 of the molar value.
recordedEndpoint: pIC50

>>> valuemeasured("Nc1ccn([C@@H]2O[C@H](CO)[C@@H](O)C2(F)F)c(=O)n1")
8.20
>>> valuemeasured("Nc1ccn([C@@H]2O[C@H](COC(=O)CCCC[C@@H]3CCSS3)[C@@H](O)C2(F)F)c(=O)n1")
8.30
